Values from PubChem BioAssay AID2060900

# Tested on: 521955-158-R2-J5-PDC complex spheroids, viability;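 note: spheroids also contain HUVEC endothelial cells and mesenchymal stem cells as stroma; compound exposure lasted seven days before the viability read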
# EXPERIMENTAL PROTOCOL: Anticancer human tumor 521955-158-R2-J5-PDC patient-derived pancreatic carcinoma cell line growth inhibition [RAS]
# MEASUREMENT PARAMETERS: second compound 0.1 µM; first compound 10 µM; stronger effect = lower value
Label criterion met when viability, T/C is strictly below 20%; at or above that, label criterion not met.

{"COMPOUND": "CC(=O)OC12COC1CC(O)C1(C)C(=O)C(O)C3=C(C)C(OC(=O)C(O)C(NC(=O)OC(C)(C)C)c4ccccc4)CC(O)(C(OC(=O)c4ccccc4)C21)C3(C)C (stereo unspecified) + C=CC(=O)N1CCN(c2nc(OCC3CCCN3C)nc3c(F)c(-c4nc(N)cc(C)c4C(F)(F)F)c(Cl)cc23)C(C)C1", "LABEL": "criterion not met"}
{"COMPOUND": "CC(C)NCC(C(=O)N1CCN(c2ncnc3c2C(C)CC3O)CC1)c1ccc(Cl)cc1 (stereo unspecified) + C=CC(=O)N1CCN(c2nc(OCC3CCCN3C)nc3c(F)c(-c4nc(N)cc(C)c4C(F)(F)F)c(Cl)cc23)C(C)C1", "LABEL": "criterion not met"}

Regarding NC1c2ccccc2OC12CCN(c1cnc3c(N4CCCc5ncccc54)n[nH]c3n1)CC2 (stereo unspecified) + C=CC(=O)N1CCN(c2nc(OCC3CCCN3C)nc3c(F)c(-c4nc(N)cc(C)c4C(F)(F)F)c(Cl)cc23)C(C)C1 , kindly confirm whether its viability, T/C is beneath 20%.
criterion not met

Regarding CCC(CC)c1cc(NC2CCC(N)C2)n2nccc2n1 (stereo unspecified) + C=CC(=O)N1CCN(c2nc(OCC3CCCN3C)nc3c(F)c(-c4nc(N)cc(C)c4C(F)(F)F)c(Cl)cc23)C(C)C1 , kindly confirm whether its viability, T/C is beneath 20%.
criterion met

Regarding CC1(O)CCCC1n1c(=O)c(C(F)F)cc2cnc(NC3CCN(S(C)(=O)=O)CC3)nc21 (stereo unspecified) + C=CC(=O)N1CCN(c2nc(OCC3CCCN3C)nc3c(F)c(-c4nc(N)cc(C)c4C(F)(F)F)c(Cl)cc23)C(C)C1 , kindly confirm whether its viability, T/C is beneath 20%.
criterion met

Regarding CC1(O)CCCC1n1c(=O)c(C(F)F)cc2cnc(NC3CCN(S(C)(=O)=O)CC3)nc21 (stereo unspecified) + C#Cc1c(F)ccc2cc(O)cc(-c3ncc4c(N5CC6CCC(C5)N6)nc(OCC56CCCN5CC(F)C6)nc4c3F)c12 , kindly confirm whether its viability, T/C is beneath 20%.
criterion not met

Regarding NC1c2ccccc2OC12CCN(c1cnc3c(N4CCCc5ncccc54)n[nH]c3n1)CC2 (stereo unspecified) + C#Cc1c(F)ccc2cc(O)cc(-c3ncc4c(N5CC6CCC(C5)N6)nc(OCC56CCCN5CC(F)C6)nc4c3F)c12 , kindly confirm whether its viability, T/C is beneath 20%.
criterion met

Regarding C[C@@H](NC(=O)c1ncnc(N)c1Cl)c1ncc(C(=O)Nc2cc(C(F)(F)F)c(Cl)cn2)s1 + C#Cc1c(F)ccc2cc(O)cc(-c3ncc4c(N5CC6CCC(C5)N6)nc(OCC56CCCN5CC(F)C6)nc4c3F)c12 , kindly confirm whether its viability, T/C is beneath 20%.
criterion not met

Regarding CC(Nc1ccc2c(c1)OCCn1cc(N3C(=O)OCC3C(F)F)nc1-2)C(N)=O (stereo unspecified) + C#Cc1c(F)ccc2cc(O)cc(-c3ncc4c(N5CC6CCC(C5)N6)nc(OCC56CCCN5CC(F)C6)nc4c3F)c12 , kindly confirm whether its viability, T/C is beneath 20%.
criterion met

Regarding CC(Nc1ccc2c(c1)OCCn1cc(N3C(=O)OCC3C(F)F)nc1-2)C(N)=O (stereo unspecified) + C=CC(=O)N1CCN(c2nc(OCC3CCCN3C)nc3c(F)c(-c4nc(N)cc(C)c4C(F)(F)F)c(Cl)cc23)C(C)C1 , kindly confirm whether its viability, T/C is beneath 20%.
criterion met

Regarding CC(C)NCC(C(=O)N1CCN(c2ncnc3c2C(C)CC3O)CC1)c1ccc(Cl)cc1 (stereo unspecified) + C#Cc1c(F)ccc2cc(O)cc(-c3ncc4c(N5CC6CCC(C5)N6)nc(OCC56CCCN5CC(F)C6)nc4c3F)c12 , kindly confirm whether its viability, T/C is beneath 20%.
criterion met
